experiment: Absorption property of the compound in chloroform assessed as hypsochromic shift by measuring maximum absorption wavelength by UV-visible spectrophotometric method; type: physicochemical
Param threshold (700 nm) applies to Activity; output T when value >= threshold, F when value < threshold.

query-smiles | answer-label
Cc1ccc(C2=[N+]3C(=Nc4c(-c5ccccc5)cc(-c5ccc(C)cc5)n4[B-]3(F)F)C(c3ccccc3)=C2I)cc1 | F
Cc1ccc(C2=[N+]3C(=Nc4c(-c5ccccc5)c(I)c(-c5ccc(C)cc5)n4[B-]3(F)F)C(c3ccccc3)=C2I)cc1 | F
Cc1ccc(C2=[N+]3C(=Nc4c(-c5ccccc5)cc(-c5ccc(C)cc5)n4[B-]3(F)F)C(c3ccccc3)=C2Br)cc1 | F
Cc1ccc(C2=[N+]3C(=Nc4c(-c5ccccc5)c(I)c(-c5ccc(C)s5)n4[B-]3(F)F)C(c3ccccc3)=C2I)s1 | T
Cc1ccc(C2=[N+]3C(=Nc4c(-c5ccccc5)cc(-c5ccc(C)s5)n4[B-]3(F)F)C(c3ccccc3)=C2I)s1 | T

* * *

test: Photostability of the compound in N,N-dimethylformamide assessed as compound degradation irradiated with 90 mW/cm2 light; type: physicochemical
measured-attribute: Stabilty

query-smiles | measured-attribute | observed-result
COc1ccc(C2=[N+]3C(=Nc4c(-c5ccccc5)c(Br)c(-c5ccc(OC)cc5)n4[B-]3(F)F)C(c3ccccc3)=C2I)cc1 | Stabilty | Unstable
COc1ccc(C2=[N+]3C(=Nc4c(-c5ccccc5)c(I)c(-c5ccc(OC)cc5)n4[B-]3(F)F)C(c3ccccc3)=C2I)cc1 | Stabilty | Unstable
COc1ccc(C2=[N+]3C(=Nc4c(-c5ccccc5)c(Br)c(-c5ccc(OC)cc5)n4[B-]3(F)F)C(c3ccccc3)=C2Br)cc1 | Stabilty | Unstable
COc1ccc(C2=[N+]3C(=Nc4c(-c5ccccc5)cc(-c5ccc(OC)cc5)n4[B-]3(F)F)C(c3ccccc3)=C2Br)cc1 | Stabilty | Unstable
COc1ccc(C2=[N+]3C(=Nc4c(-c5ccccc5)cc(-c5ccc(OC)cc5)n4[B-]3(F)F)C(c3ccccc3)=C2I)cc1 | Stabilty | Unstable
COc1ccc(C2=[N+]3C(=Nc4c(-c5ccccc5)cc(-c5ccc(OC)cc5)n4[B-]3(F)F)C(c3ccccc3)=C2)cc1 | Stabilty | Unstable

* * *

Listing: Activity of selected compounds
test: Absorption property of the compound in chloroform assessed as absorption coefficient by UV-visible spectrophotometric method; format: physicochemical

query-smiles | reading-unit | Activity
Cc1ccc(C2=[N+]3C(=Nc4c(-c5ccccc5)c(I)c(-c5ccc(C)cc5)n4[B-]3(F)F)C(c3ccccc3)=C2I)cc1 | M⁻¹ cm⁻¹ | 92000
Cc1ccc(C2=[N+]3C(=Nc4c(-c5ccccc5)c(I)c(-c5ccc(C)s5)n4[B-]3(F)F)C(c3ccccc3)=C2I)s1 | M⁻¹ cm⁻¹ | 91300
Cc1ccc(C2=[N+]3C(=Nc4c(-c5ccccc5)c(Br)c(-c5ccc(C)cc5)n4[B-]3(F)F)C(c3ccccc3)=C2Br)cc1 | M⁻¹ cm⁻¹ | 79900
COc1ccc(C2=[N+]3C(=Nc4c(-c5ccccc5)c(Br)c(-c5ccc(OC)cc5)n4[B-]3(F)F)C(c3ccccc3)=C2Br)cc1 | M⁻¹ cm⁻¹ | 77000
COc1ccc(C2=[N+]3C(=Nc4c(-c5ccccc5)c5c(n4[B-]3(F)F)-c3ccc(OC)cc3CC5)C(c3ccccc3)=C2I)cc1 | M⁻¹ cm⁻¹ | 101300
Cc1ccc(C2=[N+]3C(=Nc4c(-c5ccccc5)cc(-c5ccc(C)cc5)n4[B-]3(F)F)C(c3ccccc3)=C2I)cc1 | M⁻¹ cm⁻¹ | 89600
COc1ccc2c(c1)CCc1c(-c3ccccc3)c3n(c1-2)[B-](F)(F)[N+]1=C(c2ccc(C)s2)C(I)=C(c2ccccc2)C1=N3 | M⁻¹ cm⁻¹ | 76900
Cc1ccc(C2=[N+]3C(=Nc4c(-c5ccccc5)cc(-c5ccc(C)s5)n4[B-]3(F)F)C(c3ccccc3)=C2I)s1 | M⁻¹ cm⁻¹ | 71700
COc1ccc(C2=[N+]3C(=Nc4c(-c5ccccc5)c(I)c(-c5ccc(OC)cc5)n4[B-]3(F)F)C(c3ccccc3)=C2I)cc1 | M⁻¹ cm⁻¹ | 74000
COc1ccc(C2=[N+]3C(=Nc4c(-c5ccccc5)cc(-c5ccc(OC)cc5)n4[B-]3(F)F)C(c3ccccc3)=C2I)cc1 | M⁻¹ cm⁻¹ | 97000
COc1ccc(C2=[N+]3C(=Nc4c(-c5ccccc5)cc(-c5ccc(OC)cc5)n4[B-]3(F)F)C(c3ccccc3)=C2Br)cc1 | M⁻¹ cm⁻¹ | 81000
COc1ccc(C2=[N+]3C(=Nc4c(-c5ccccc5)c(Br)c(-c5ccc(OC)cc5)n4[B-]3(F)F)C(c3ccccc3)=C2I)cc1 | M⁻¹ cm⁻¹ | 76000
COc1ccc2c(c1)CCc1c(-c3ccccc3)c3n(c1-2)[B-](F)(F)[N+]1=C(c2ccc(C)cc2)C(I)=C(c2ccccc2)C1=N3 | M⁻¹ cm⁻¹ | 110000
COc1ccc2c(c1)CCc1c(-c3ccccc3)c3n(c1-2)[B-](F)(F)[N+]1=C(c2cccs2)C(I)=C(c2ccccc2)C1=N3 | M⁻¹ cm⁻¹ | 81500

* * *

assay: Dark toxicity in human MCF7 cells assessed as reduction in cell viability after 3 hrs by MTT assay; format: cell-based

query-smiles | IC50 at 3 h
COc1ccc(C2=[N+]3C(=Nc4c(-c5ccccc5)cc(-c5ccc(OC)cc5)n4[B-]3(F)F)C(c3ccccc3)=C2I)cc1 | > 50 µM
Cc1ccc(C2=[N+]3C(=Nc4c(-c5ccccc5)c(I)c(-c5ccc(C)s5)n4[B-]3(F)F)C(c3ccccc3)=C2I)s1 | > 50 µM
COc1ccc(C2=[N+]3C(=Nc4c(-c5ccccc5)c(I)c(-c5ccc(OC)cc5)n4[B-]3(F)F)C(c3ccccc3)=C2I)cc1 | > 50 µM
COc1ccc(C2=[N+]3C(=Nc4c(-c5ccccc5)cc(-c5ccc(OC)cc5)n4[B-]3(F)F)C(c3ccccc3)=C2)cc1 | > 50 µM
COc1ccc2c(c1)CCc1c(-c3ccccc3)c3n(c1-2)[B-](F)(F)[N+]1=C(c2ccc(C)s2)C(I)=C(c2ccccc2)C1=N3 | > 50 µM
COc1ccc(C2=[N+]3C(=Nc4c(-c5ccccc5)c(Br)c(-c5ccc(OC)cc5)n4[B-]3(F)F)C(c3ccccc3)=C2I)cc1 | > 50 µM
COc1ccc2c(c1)CCc1c(-c3ccccc3)c3n(c1-2)[B-](F)(F)[N+]1=C(c2ccc(C)cc2)C(I)=C(c2ccccc2)C1=N3 | > 50 µM
C=Cc1c(C)c2cc3nc(c(CC(=O)O)c4[nH]c(cc5nc(cc1[nH]2)C(C)=C5CC)c(C)c4C(=O)O)[C@@H](CCC(=O)O)[C@@H]3C | > 50 µM
Cc1ccc(C2=[N+]3C(=Nc4c(-c5ccccc5)c(Br)c(-c5ccc(C)cc5)n4[B-]3(F)F)C(c3ccccc3)=C2Br)cc1 | > 50 µM
Cc1ccc(C2=[N+]3C(=Nc4c(-c5ccccc5)cc(-c5ccc(C)s5)n4[B-]3(F)F)C(c3ccccc3)=C2I)s1 | > 50 µM
COc1ccc(C2=[N+]3C(=Nc4c(-c5ccccc5)c5c(n4[B-]3(F)F)-c3ccc(OC)cc3CC5)C(c3ccccc3)=C2Br)cc1 | > 50 µM
Cc1ccc(C2=[N+]3C(=Nc4c(-c5ccccc5)cc(-c5ccc(C)cc5)n4[B-]3(F)F)C(c3ccccc3)=C2I)cc1 | > 50 µM
COc1ccc2c(c1)CCc1c(-c3ccccc3)c3n(c1-2)[B-](F)(F)[N+]1=C(c2ccc(C)cc2)C(Br)=C(c2ccccc2)C1=N3 | > 50 µM
Cc1ccc(C2=[N+]3C(=Nc4c(-c5ccccc5)c(I)c(-c5ccc(C)cc5)n4[B-]3(F)F)C(c3ccccc3)=C2I)cc1 | > 50 µM

* * *

test: Absorption property of the compound in chloroform assessed as hypsochromic shift by measuring maximum absorption wavelength by UV-visible spectrophotometric method; assay type: physicochemical
measured-attribute: Activity (nm)

query-smiles | measured-attribute | observed-result
Cc1ccc(C2=[N+]3C(=Nc4c(-c5ccccc5)c(Br)c(-c5ccc(C)cc5)n4[B-]3(F)F)C(c3ccccc3)=C2Br)cc1 | Activity | 658
COc1ccc(C2=[N+]3C(=Nc4c(-c5ccccc5)cc(-c5ccc(OC)cc5)n4[B-]3(F)F)C(c3ccccc3)=C2)cc1 | Activity | 688
COc1ccc2c(c1)CCc1c(-c3ccccc3)c3n(c1-2)[B-](F)(F)[N+]1=C(c2ccc(C)cc2)C(I)=C(c2ccccc2)C1=N3 | Activity | 682
COc1ccc2c(c1)CCc1c(-c3ccccc3)c3n(c1-2)[B-](F)(F)[N+]1=C(c2ccc(C)s2)C(I)=C(c2ccccc2)C1=N3 | Activity | 716
COc1ccc(C2=[N+]3C(=Nc4c(-c5ccccc5)cc(-c5ccc(OC)cc5)n4[B-]3(F)F)C(c3ccccc3)=C2I)cc1 | Activity | 678

* * *

experiment: Emission property of the compound in chloroform assessed as maximum emission wavelength by fluorescence spectrophotometric method; format: physicochemical
Recorded Activity, one value per entry.

query-smiles | Activity (nm)
Cc1ccc(C2=[N+]3C(=Nc4c(-c5ccccc5)cc(-c5ccc(C)s5)n4[B-]3(F)F)C(c3ccccc3)=C2I)s1 | 766
COc1ccc(C2=[N+]3C(=Nc4c(-c5ccccc5)cc(-c5ccc(OC)cc5)n4[B-]3(F)F)C(c3ccccc3)=C2Br)cc1 | 720
Cc1ccc(C2=[N+]3C(=Nc4c(-c5ccccc5)c(I)c(-c5ccc(C)s5)n4[B-]3(F)F)C(c3ccccc3)=C2I)s1 | 768
COc1ccc2c(c1)CCc1c(-c3ccccc3)c3n(c1-2)[B-](F)(F)[N+]1=C(c2cccs2)C(I)=C(c2ccccc2)C1=N3 | 740
